Entry source: PubChem BioAssay (NCI)

- System: SK-MEL-2 melanoma
- measurementNotes: NCI-60 one-dose screen, 48 h
- conditions: 10 µM unless noted
The panel holds about 83,000 compounds, 20% with a hit somewhere; the sample as a whole holds those more often. Calls of active or inactive are those of the source. Rule for the calls: active = growth percent below 10; inactive = the rest.
Outcome (select one): T (active), F (inactive)

INSERT INTO measurements (molecule, testsystem, classassignment) VALUES
  ('O=C(Nc1cccc(-n2ccc3c(NC(=O)c4ccccc4)ncnc32)c1)Nc1ccc(Cl)c(C(F)(F)F)c1', 'SK-MEL-2 melanoma', 'T');

Would you mind telling me which call this test gave `COc1cc(NC(=O)c2cc(OC)c3ccn(C)c3c2)cc2c1C[C@]1(C)CC[C@@H](O)C(C)(C)[C@H]1O2` ?
F

Please indicate how the test categorized `O=C(/C=C/c1ccco1)c1cccc(Nc2nc(Nc3ccccc3)nc(Nc3ccccc3)n2)c1` .
F

Record request — test call for `NS(=O)(=O)c1ccc(-n2nc(-c3ccc(Cl)cc3)ccc2=O)cc1`
F

Name the outcome recorded for CCOC(=O)C1CSC(C)(C(=O)OCC)N1 (stereo not given) in the assay.
F
